tested on: Streptococcus pneumoniae; experiment: Antibacterial activity against Streptococcus pneumoniae ATCC49619 assessed as bacterial growth inhibition incubated for 18 to 24 hrs by microbroth dilution method; assay type: functional; details: time 18-24 hrs
measurement-label: MIC (mg/L)
The response must be a number in mg/L with no trailing unit.

Request: Lookup: MIC / Streptococcus pneumoniae / `Cc1cccc(NC(=O)c2ccc3[nH]c4c5[n+](ccc4c3c2)-c2ccccc2C5=O)c1.[Br-]`
Result: 0.098

Request: Same lookup for `CCCCc1ccc(NC(=O)c2ccc3[nH]c4c5[n+](ccc4c3c2)-c2ccccc2C5=O)cc1.[Br-]` , please.
Result: 0.78

Request: Next compound: `CCCCCCc1ccc(NC(=O)c2ccc3[nH]c4c5[n+](ccc4c3c2)-c2ccccc2C5=O)cc1.[Br-]`
Result: 6.25

Request: Likewise for `Cc1ccccc1NC(=O)c1ccc2[nH]c3c4[n+](ccc3c2c1)-c1ccccc1C4=O.[Br-]` ?
Result: 50

Request: Would you kindly repeat that for `CCCCCCCCNC(=O)c1ccc2[nH]c3c4[n+](ccc3c2c1)-c1ccccc1C4=O.[Br-]` ?
Result: 0.39

Request: Likewise for `O=C(NC1CCCCC1)c1ccc2[nH]c3c4[n+](ccc3c2c1)-c1ccccc1C4=O.[Br-]` ?
Result: 0.78

Request: Queued: `CCCCCCNC(=O)c1ccc2[nH]c3c4[n+](ccc3c2c1)-c1ccccc1C4=O.[Br-]`
Result: 0.39

Request: Would you mind doing `CC(C)c1cccc(NC(=O)c2ccc3[nH]c4c5[n+](ccc4c3c2)-c2ccccc2C5=O)c1.[Br-]` as well?
Result: 0.049

Request: And for `CC(C)c1ccc(NC(=O)c2ccc3[nH]c4c5[n+](ccc4c3c2)-c2ccccc2C5=O)cc1.[Br-]` ?
Result: 0.049

Request: Input `COc1ccc(NC(=O)c2ccc3[nH]c4c5[n+](ccc4c3c2)-c2ccccc2C5=O)cc1.[Br-]`
Result: 0.39

Request: Entry to check: `Cc1ccc(NC(=O)c2ccc3[nH]c4c5[n+](ccc4c3c2)-c2ccccc2C5=O)cc1.[Br-]`
Result: 0.39

Request: Please do the same for `CCCCCCCCc1ccc(NC(=O)c2ccc3[nH]c4c5[n+](ccc4c3c2)-c2ccccc2C5=O)cc1.[Br-]` as well.
Result: 25

Request: Query `O=C(Nc1ccccc1)c1ccc2[nH]c3c4[n+](ccc3c2c1)-c1ccccc1C4=O.[Br-]` next
Result: 6.25

Request: And for `CC(C)c1ccccc1NC(=O)c1ccc2[nH]c3c4[n+](ccc3c2c1)-c1ccccc1C4=O.[Br-]` ?
Result: 50

Request: Let us now turn to `COc1ccccc1NC(=O)c1ccc2[nH]c3c4[n+](ccc3c2c1)-c1ccccc1C4=O.[Br-]`
Result: 0.049

Request: Please give the result for `CCCCNC(=O)c1ccc2[nH]c3c4[n+](ccc3c2c1)-c1ccccc1C4=O.[Br-]` too.
Result: 3.12

Request: Then what about the compound `COc1cccc(NC(=O)c2ccc3[nH]c4c5[n+](ccc4c3c2)-c2ccccc2C5=O)c1.[Br-]` ?
Result: 0.39

Request: What about this compound? O=C(O)c1cn(C2CC2)c2cc(N3CCNCC3)c(F)cc2c1=O [CIPROFLOXACIN]
Result: 0.195

----------
So I've got a bunch of molecules here, and I need their viability at 24 h, 50 ug/ml values.
test: Cytotoxicity against mouse RAW264.7 cells assessed as cell survival at 50 ug/ml incubated for 24 hrs by CCK8 assay relative to control; type: toxicity, cell-based; details: at 50 µg/mL, read-out: Activity

Request: What does the data say about its viability at 24 h, 50 ug/ml? Entry: `COc1ccccc1NC(=O)c1ccc2[nH]c3c4[n+](ccc3c2c1)-c1ccccc1C4=O.[Br-]`
Result: 13.2%

Request: Also `CC(C)c1cccc(NC(=O)c2ccc3[nH]c4c5[n+](ccc4c3c2)-c2ccccc2C5=O)c1.[Br-]` , if possible.
Result: 98.2%

Request: Now this one: `Cc1cccc(NC(=O)c2ccc3[nH]c4c5[n+](ccc4c3c2)-c2ccccc2C5=O)c1.[Br-]`
Result: 101%

Request: Repeat for the following molecule: `CCCCCCCCNC(=O)c1ccc2[nH]c3c4[n+](ccc3c2c1)-c1ccccc1C4=O.[Br-]`
Result: 73.3%
